// data source = the Human Domainome abundance scans (Beltran et al. 2025)

B1: Homeobox protein cut-like 1, residues 941 to 1008; numbered along this chain, P39880 (parent)
chain: QEVDTIELTRQVKEKLAKNGICQRIFGEKVLGLSQGSVSDMLSRPKPWSKLTQKGREPFIRMQLWLNG

Variants of: B1
Test: abundance fitness (aPCA) (normalised: wild type 0, dead -1); higher = more abundant; growth selection in yeast, the domain comes from the species named
Details: Homo sapiens
Using abundance fitness as the sorting value, the categories are one (below -0.3), two (-0.3 to below -0.2), three (-0.2 or more)

[[record]]
change = "L16N"
class_assignment = "two"

[[record]]
change = "M41P"
class_assignment = "two"

[[record]]
change = "D4P"
class_assignment = "two"

[[record]]
change = "T5G"
class_assignment = "one"

[[record]]
change = "S49R"
class_assignment = "three"

[[record]]
change = "S49M"
class_assignment = "one"

[[record]]
change = "L51G"
class_assignment = "one"

[[record]]
change = "S37W"
class_assignment = "three"

[[record]]
change = "Q35G"
class_assignment = "three"

[[record]]
change = "S49T"
class_assignment = "three"

[[record]]
change = "K29L"
class_assignment = "one"

[[record]]
change = "Q35N"
class_assignment = "one"

[[record]]
change = "I21A"
class_assignment = "one"

[[record]]
change = "K18V"
class_assignment = "three"

[[record]]
change = "V12P"
class_assignment = "three"

[[record]]
change = "S49E"
class_assignment = "three"

[[record]]
change = "Q23K"
class_assignment = "two"

[[record]]
change = "V38L"
class_assignment = "three"

[[record]]
change = "L16T"
class_assignment = "three"

[[record]]
change = "D4V"
class_assignment = "one"

